Assay: In vivo pharmacokinetics in dog
Design: species or system male Beagle dogs
Conditions: male, Beagle, plasma, IV 1.0 mg/kg, mean
reported metric: AUC(0-inf)

compound: Cc1c(C(=O)Nc2ccc3c(c2)B(O)OC3)nnn1-c1ccccn1 [Compound 23]
reported metric: AUC(0-inf)
observed result: 1270 ng·h/mL

----------
Test: In vivo pharmacokinetics in dog
Set-up: species or system male Beagle dogs
Details: male, Beagle, plasma, IV 1.0 mg/kg, 0.033 h, mean
reported metric: concentration at 0.033 h (ng/mL)

structure notation: Cc1c(C(=O)Nc2ccc3c(c2)B(O)OC3)nnn1-c1ccccn1
unit text: ng/mL
observed result: 1560
